Experiment: PK in fasted male Sprague Dawley rats, PO administration of prodrug
Format: in vivo
Settings: rat, plasma; fasted male Sprague Dawley rats; PO 14 mg/kg; prodrug; read-out: Example 125 % F (bioavailability)
assay-endpoint: bioavailability (%)
The reply should be a number in %, with the unit left off.

*Q* // fetch bioavailability given entry CN(CC(=O)Nc1nc2ccc(OC(F)(F)F)cc2s1)C(=O)CNC(C)(C)C
*A* 26

###

Experiment: PK in fasted male Sprague Dawley rats, PO administration of prodrug
Assay type: in vivo
Details: rat; fasted male Sprague Dawley rats; PO 14 mg/kg; prodrug in plasma; read-out: Example 125 AUCinf, Mean
assay-endpoint: AUC(0-inf)
Put your answer as a value accompanied by its unit after it.

*Q* // fetch AUC(0-inf) given entry CN(CC(=O)Nc1nc2ccc(OC(F)(F)F)cc2s1)C(=O)CNC(C)(C)C
*A* 2290 ng·h/mL
